- Tested On: Thromboxane A2 receptor (Homo sapiens); also: assay procedure not described here
- Sequence (P21731 whole entry): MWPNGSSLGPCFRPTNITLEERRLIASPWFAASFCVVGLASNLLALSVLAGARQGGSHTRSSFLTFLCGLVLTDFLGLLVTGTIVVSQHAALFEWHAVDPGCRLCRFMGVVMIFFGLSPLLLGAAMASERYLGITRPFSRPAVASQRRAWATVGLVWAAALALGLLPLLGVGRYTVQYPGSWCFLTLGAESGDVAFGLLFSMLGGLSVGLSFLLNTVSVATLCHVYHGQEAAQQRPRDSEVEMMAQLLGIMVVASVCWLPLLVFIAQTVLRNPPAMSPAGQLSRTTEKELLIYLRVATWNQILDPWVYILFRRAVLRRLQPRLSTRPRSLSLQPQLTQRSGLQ
- Format: functional, cell-based
Measure: AC50

Solved cases (5 shown):
Molecule	AC50
CCC(=O)O[C@@H]1CC(=O)O[C@H](C)C/C=C/C=C/[C@H](OC(C)=O)[C@H](C)C[C@H](CC=O)[C@H](O[C@@H]2O[C@H](C)[C@@H](O[C@H]3C[C@@](C)(OC(C)=O)[C@@H](OC(=O)CC)[C@H](C)O3)[C@H](N(C)C)[C@H]2O)[C@H]1OC [MIOCAMYCIN]	> 30 µM
CCSc1ccc2c(c1)N(CCCN1CCN(C)CC1)c1ccccc1S2 [THIETHYLPERAZINE]	3.98 µM
CC(C)COc1ccc(CNC(=O)N(Cc2ccc(F)cc2)C2CCN(C)CC2)cc1 [PIMAVANSERIN]	> 3 µM
C#Cc1cccc(Nc2ncnc3cc(OCCOC)c(OCCOC)cc23)c1 [ERLOTINIB]	> 30 µM
C[C@H](N)C(=O)O [ALANINE]	> 30 µM

// field: AC50; key: CO/N=C(\C(=O)N[C@@H]1C(=O)N2C(C(=O)[O-])=C(C[n+]3cccc4c3CCC4)CS[C@H]12)c1csc(N)n1 [CEFPIROME] ; value = > 30 µM

====

- Tested On: Muscarinic acetylcholine receptor M1 (Homo sapiens); also: assay procedure not described here
- Sequence (P11229 whole entry): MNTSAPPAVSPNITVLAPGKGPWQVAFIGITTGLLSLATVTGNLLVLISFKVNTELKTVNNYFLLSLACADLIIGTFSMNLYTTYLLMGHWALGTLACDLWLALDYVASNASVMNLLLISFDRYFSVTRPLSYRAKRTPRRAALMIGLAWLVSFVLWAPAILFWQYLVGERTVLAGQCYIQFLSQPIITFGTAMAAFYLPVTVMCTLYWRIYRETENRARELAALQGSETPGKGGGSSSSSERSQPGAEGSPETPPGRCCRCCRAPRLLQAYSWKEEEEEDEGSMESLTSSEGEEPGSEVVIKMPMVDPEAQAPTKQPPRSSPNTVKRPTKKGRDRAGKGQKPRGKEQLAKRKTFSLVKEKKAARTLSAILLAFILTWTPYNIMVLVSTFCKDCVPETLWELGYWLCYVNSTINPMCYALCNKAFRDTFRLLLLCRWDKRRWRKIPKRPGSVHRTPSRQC
- Type: functional
Catalogue of compounds with associated AC50

Solved cases (3 shown):
COc1cc2nccc(Oc3ccc(NC(=O)Nc4cc(C)on4)c(Cl)c3)c2cc1OC > 30 µM
N=C(N)c1ccc2cc(OC(=O)c3ccc(N=C(N)N)cc3)ccc2c1 8.7 µM
CN(C)c1cc(NC(=O)CNC(C)(C)C)c(O)c2c1C[C@H]1C[C@H]3[C@H](N(C)C)C(O)=C(C(N)=O)C(=O)[C@@]3(O)C(O)=C1C2=O 27 µM

--- query ---
// field: AC50; key: "COC(=O)N[C@@H](C)CNc1nccc(-c2cn(C(C)C)nc2-c2cc(Cl)cc(NS(C)(=O)=O)c2F)n1" ; value = > 30 µM

====

- Tested On: Synaptic vesicular amine transporter (Rattus norvegicus); also: assay procedure not described here
- Sequence (Q01827 whole entry): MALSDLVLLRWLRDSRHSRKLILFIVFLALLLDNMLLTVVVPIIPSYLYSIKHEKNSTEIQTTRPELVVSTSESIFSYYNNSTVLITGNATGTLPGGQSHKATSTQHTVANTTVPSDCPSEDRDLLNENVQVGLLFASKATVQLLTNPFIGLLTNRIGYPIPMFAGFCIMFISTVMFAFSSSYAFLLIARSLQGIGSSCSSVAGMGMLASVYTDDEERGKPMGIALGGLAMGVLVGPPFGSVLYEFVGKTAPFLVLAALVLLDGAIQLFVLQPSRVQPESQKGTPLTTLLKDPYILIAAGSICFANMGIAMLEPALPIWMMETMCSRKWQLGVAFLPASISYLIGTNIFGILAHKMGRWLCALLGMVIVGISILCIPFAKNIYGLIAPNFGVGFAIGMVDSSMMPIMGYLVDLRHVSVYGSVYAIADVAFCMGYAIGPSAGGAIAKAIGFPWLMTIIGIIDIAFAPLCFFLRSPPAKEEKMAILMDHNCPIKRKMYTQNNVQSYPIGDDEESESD
- Assay type: functional
Catalogue of compounds with associated AC50

Solved cases (5 shown):
Compound	Tested On	Endpoint Result
CNCC[C@H](Oc1cccc2ccccc12)c1cccs1	Synaptic vesicular amine transporter (Rattus norvegicus)	1.4 µM
O=C(Nc1c(Cl)cncc1Cl)c1ccc(OC(F)F)c(OCC2CC2)c1	Synaptic vesicular amine transporter (Rattus norvegicus)	12.1 µM
CC(C)COc1ccc(CNC(=O)N(Cc2ccc(F)cc2)C2CCN(C)CC2)cc1	Synaptic vesicular amine transporter (Rattus norvegicus)	3.1 µM
COc1ccc(C(CN(C)C)C2(O)CCCCC2)cc1 (centres undefined)	Synaptic vesicular amine transporter (Rattus norvegicus)	> 30 µM
NC(=O)NS(=O)(=O)c1ccc(N)cc1 [SULFACARBAMIDE]	Synaptic vesicular amine transporter (Rattus norvegicus)	> 30 µM

// field: AC50; key: "CC(C)N(CCCCOCC(=O)NS(C)(=O)=O)c1cnc(-c2ccccc2)c(-c2ccccc2)n1" ; value = > 30 µM

// field: AC50; key: "NC(=O)c1ncn([C@@H]2O[C@H](CO)[C@@H](O)[C@H]2O)n1" ; value = > 30 µM

// field: AC50; key: CCCCCCCCNC(C)C(O)c1ccc(SC(C)C)cc1 (centres undefined) ; value = 0.0013 µM

// field: AC50; key: Cc1ccc([C@@H]2O[C@H](CO)[C@@H](O)[C@H](O)[C@H]2O)cc1Cc1ccc(-c2ccc(F)cc2)s1 [CANAGLIFLOZIN ANHYDROUS] ; value = 20 µM

====

// Vasopressin V1a receptor (Homo sapiens, UniProt P37288) AC50 records

Molecule	Endpoint Result
CC(=O)OCC(CCn1cnc2cnc(N)nc21)COC(C)=O	> 10 µM
N#C[C@@H]1CCCN1C(=O)CNC12CC3CC(CC(O)(C3)C1)C2	> 30 µM
C[C@]12CC[C@H](O)CC1=CC[C@@H]1[C@@H]2CC[C@]2(C)C(c3cccnc3)=CC[C@@H]12	> 30 µM

--- query ---
// field: AC50; key: CCN(CC)C(=O)C1CN2CCc3cc(OC)c(OC)cc3C2CC1OC(C)=O (centres undefined) [BENZQUINAMIDE] ; value = > 30 µM

====

- Tested On: 5-hydroxytryptamine receptor 1A (Homo sapiens, UniProt P08908); also: assay procedure not described here
- Sequence (P08908 whole entry): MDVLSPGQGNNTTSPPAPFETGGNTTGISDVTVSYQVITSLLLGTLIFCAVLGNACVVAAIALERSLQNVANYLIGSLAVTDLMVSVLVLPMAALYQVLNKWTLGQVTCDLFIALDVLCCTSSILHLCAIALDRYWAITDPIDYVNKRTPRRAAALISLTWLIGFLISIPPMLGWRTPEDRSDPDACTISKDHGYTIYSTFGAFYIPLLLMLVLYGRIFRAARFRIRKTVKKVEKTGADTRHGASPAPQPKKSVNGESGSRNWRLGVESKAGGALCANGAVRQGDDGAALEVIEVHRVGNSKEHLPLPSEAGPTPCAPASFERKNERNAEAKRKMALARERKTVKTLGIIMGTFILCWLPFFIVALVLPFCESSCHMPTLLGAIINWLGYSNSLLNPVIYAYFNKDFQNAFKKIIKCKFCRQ
- Type: functional, cell-based
Catalogue of molecules with associated AC50

Solved cases (6 shown):
Molecule	AC50
CNCCCC1c2ccccc2C=Cc2ccccc21	> 10 µM
CC1(C)O[C@@H]2C[C@H]3[C@@H]4C[C@H](F)C5=CC(=O)C=C[C@]5(C)[C@H]4[C@@H](O)C[C@]3(C)[C@]2(C(=O)CO)O1 [FLUNISOLIDE]	0.56 µM
COC1=C(OC)C(=O)C(CCCCCCCCCCO)=C(C)C1=O	> 10 µM
CCCN(CCC)CCc1cccc2c1CC(=O)N2	> 30 µM
CC(C)CC(N(C)C)C1(c2ccc(Cl)cc2)CCC1 (stereo not drawn)	> 10 µM
CC(NCCc1ccc(O)cc1)C(O)c1ccc(O)cc1 (stereo not drawn)	> 10 µM

Entry "Cc1ccc(=O)n(-c2ccccc2)c1" , tested on 5-hydroxytryptamine receptor 1A (Homo sapiens, UniProt P08908), has a reported AC50 of > 30 µM

Entry "C[C@H]1Oc2cc(cnc2N)-c2c(nn(C)c2C#N)CN(C)C(=O)c2ccc(F)cc21" , tested on 5-hydroxytryptamine receptor 1A (Homo sapiens, UniProt P08908), has a reported AC50 of 6.2 µM

Entry "O=C(CCCN1CCC(n2c(O)nc3ccccc32)CC1)c1ccc(F)cc1" , tested on 5-hydroxytryptamine receptor 1A (Homo sapiens, UniProt P08908), has a reported AC50 of 0.166 µM

Entry "CCCCCCNC(=O)n1cc(F)c(=O)[nH]c1=O" , tested on 5-hydroxytryptamine receptor 1A (Homo sapiens, UniProt P08908), has a reported AC50 of > 30 µM

Entry COc1c(O[C@@H]2O[C@H](CO)[C@@H](O)[C@H](O)[C@H]2O)cc2c(c1OC)-c1ccc(SC)c(=O)cc1[C@@H](NC(C)=O)CC2 [THIOCOLCHICOSIDE] , tested on 5-hydroxytryptamine receptor 1A (Homo sapiens, UniProt P08908), has a reported AC50 of > 30 µM

Entry "NCCCC(O)(P(=O)(O)O)P(=O)(O)O" , tested on 5-hydroxytryptamine receptor 1A (Homo sapiens, UniProt P08908), has a reported AC50 of > 10 µM

Entry CC(C)(C)NCC(O)c1cc(Cl)c(N)c(Cl)c1 (stereo not drawn) , tested on 5-hydroxytryptamine receptor 1A (Homo sapiens, UniProt P08908), has a reported AC50 of > 30 µM

Entry "CCn1cc(C(=O)O)c(=O)c2cc(F)c(N3CCNCC3)nc21" , tested on 5-hydroxytryptamine receptor 1A (Homo sapiens, UniProt P08908), has a reported AC50 of > 10 µM

Entry CCOC(=O)NNc1ccc(N(CC)CC(C)O)nn1 (stereo not drawn) , tested on 5-hydroxytryptamine receptor 1A (Homo sapiens, UniProt P08908), has a reported AC50 of 27 µM

Entry "CC(=O)c1ccc2c(c1)N(CCCN1CCC(CCO)CC1)c1ccccc1S2" , tested on 5-hydroxytryptamine receptor 1A (Homo sapiens, UniProt P08908), has a reported AC50 of 0.043 µM

Entry "CC(=O)S[C@@H]1CC2=CC(=O)CC[C@]2(C)[C@H]2CC[C@@]3(C)[C@@H](CC[C@@]34CCC(=O)O4)[C@H]12" , tested on 5-hydroxytryptamine receptor 1A (Homo sapiens, UniProt P08908), has a reported AC50 of > 30 µM

Entry O=C1Nc2ccc(Cl)cc2C(c2ccccc2)=NC1O (stereo not drawn) , tested on 5-hydroxytryptamine receptor 1A (Homo sapiens, UniProt P08908), has a reported AC50 of > 10 µM

====

// Muscarinic acetylcholine receptor M3 (Homo sapiens) AC50 records

Molecule	AC50
CCN(CC)C(=O)C1CN2CCc3cc(OC)c(OC)cc3C2CC1OC(C)=O (stereo not drawn) [BENZQUINAMIDE]	> 30 µM
CC#CCn1c(N2CCC[C@@H](N)C2)nc2c1c(=O)n(Cc1nc(C)c3ccccc3n1)c(=O)n2C	6.5 µM
CCOc1cc(CC(=O)N[C@@H](CC(C)C)c2ccccc2N2CCCCC2)ccc1C(=O)O [REPAGLINIDE]	> 30 µM
CC(=O)/N=c1/sc(S(N)(=O)=O)nn1C [METHAZOLAMIDE]	> 30 µM
O=C(O)CSCC(=O)NC1CCSC1=O (stereo not drawn)	> 30 µM
COc1cccc(N(C)C(=S)Oc2ccc3c(c2)CCCC3)n1 [LIRANAFTATE]	> 30 µM

Entry NS(=O)(=O)c1cc2c(cc1C(F)(F)F)NC(Cc1ccccc1)NS2(=O)=O (stereo not drawn) [BENDROFLUMETHIAZIDE] , tested on Muscarinic acetylcholine receptor M3 (Homo sapiens), has a reported AC50 of > 30 µM

Entry "CC(=O)O[C@H]1C[C@@H]2CC[C@@H]3[C@H](CC[C@@]4(C)[C@H]3C[C@H]([N+]3(C)CCCCC3)[C@@H]4OC(C)=O)[C@@]2(C)C[C@@H]1[N+]1(C)CCCCC1" , tested on Muscarinic acetylcholine receptor M3 (Homo sapiens), has a reported AC50 of > 30 µM

Entry "[H]/N=C(\N/C(=N/[H])NCCCCCCNC(=N)NC(=N)Nc1ccc(Cl)cc1)Nc1ccc(Cl)cc1" , tested on Muscarinic acetylcholine receptor M3 (Homo sapiens), has a reported AC50 of 7.8 µM

Entry "CC(C)C[C@H](CN)CC(=O)O" , tested on Muscarinic acetylcholine receptor M3 (Homo sapiens), has a reported AC50 of > 30 µM

Entry CCCN(CC)C(CC)C(=O)Nc1c(C)cccc1C (stereo not drawn) , tested on Muscarinic acetylcholine receptor M3 (Homo sapiens), has a reported AC50 of > 30 µM

Entry COCCOC(=O)C1=C(C)NC(C)=C(C(=O)OC/C=C/c2ccccc2)C1c1cccc([N+](=O)[O-])c1 (stereo not drawn) , tested on Muscarinic acetylcholine receptor M3 (Homo sapiens), has a reported AC50 of > 30 µM

Entry "CCCCC[C@H](O)/C=C/[C@H]1[C@H](O)CC(=O)[C@@H]1C/C=C\CCCC(=O)O" , tested on Muscarinic acetylcholine receptor M3 (Homo sapiens), has a reported AC50 of > 30 µM

Entry "CCCN(CCc1cccs1)[C@H]1CCc2c(O)cccc2C1" , tested on Muscarinic acetylcholine receptor M3 (Homo sapiens), has a reported AC50 of > 30 µM

Entry CCCC(C)(COC(N)=O)COC(=O)NC(C)C (stereo not drawn) , tested on Muscarinic acetylcholine receptor M3 (Homo sapiens), has a reported AC50 of > 10 µM

Entry "O=C(O)c1ccccc1Nc1cccc(C(F)(F)F)c1" , tested on Muscarinic acetylcholine receptor M3 (Homo sapiens), has a reported AC50 of 0.92 µM

Entry CC1(C)C(C=C(Cl)Cl)C1C(=O)OCc1cccc(Oc2ccccc2)c1 (stereo not drawn) , tested on Muscarinic acetylcholine receptor M3 (Homo sapiens), has a reported AC50 of > 30 µM

Entry Cc1cc2nc3c(=O)[nH]c(=O)nc-3n(C[C@H](O)[C@H](O)[C@H](O)COP(=O)(O)O)c2cc1C [RIBOFLAVIN 5'-PHOSPHATE] , tested on Muscarinic acetylcholine receptor M3 (Homo sapiens), has a reported AC50 of > 30 µM
